Test system: 885512-296-R-J2-PDC complex spheroid growth, % test/control
procedure_summary: Anticancer human tumor 885512-296-R-J2-PDC patient-derived breast carcinoma cell line growth inhibition [AhR]
cond: second compound 0.316 µM; first compound 0.1 µM; stronger effect = lower value
outcome_measure: viability, T/C (%)
All answers are understood in %, so give the number only.

Sample answers from the record:
[[record]]
compound = "CC(C)c1c(-c2ccccc2)nc2c(C#N)c[nH]n2c1=O + Cc1ccccc1N=Nc1ccc(NC(=O)c2ccnn2C)c(C)c1"
measured_value = 104

[[record]]
compound = "CC1COCCN1c1cc(-c2ccnn2C)c2ccnc(-c3ccn[nH]3)c2n1 (stereo not drawn) + Cc1ccccc1N=Nc1ccc(NC(=O)c2ccnn2C)c(C)c1"
measured_value = 10.9


Then this compound:
Record lookup: for 885512-296-R-J2-PDC complex spheroid growth, % test/control, what viability, T/C belongs to CC1COCCN1c1cc(C2(S(C)(=N)=O)CC2)nc(-c2ccnc3[nH]ccc23)n1 (stereo not drawn) + CC(CO)NC(=O)c1cc(-c2ccc(Cl)cc2)nn(-c2cnn(C)c2)c1=O ?
102

---

Test system: 885512-296-R-J2-PDC complex spheroid growth, % test/control
procedure_summary: Anticancer human tumor 885512-296-R-J2-PDC cell line growth inhibition [AhR]; active = viability on the fitted dose curve at most 10% of control; inactive = the rest;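 note: spheroids exposed to compounds for seven days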
cond: second compound 1 µM; first compound 0.316 µM
API: response.call in t (active), f (inactive)

# example entries with known answers
[[record]]
compound = "CC1(C)CCC(CN2CCN(c3ccc(C(=O)NS(=O)(=O)c4ccc(NCC5CCOCC5)c([N+](=O)[O-])c4)c(Oc4cnc5[nH]ccc5c4)c3)CC2)=C(c2ccc(Cl)cc2)C1 + CC(CO)NC(=O)c1cc(-c2ccc(Cl)cc2)nn(-c2cnn(C)c2)c1=O"
label_value = "f"

[[record]]
compound = "CC(C)c1c(-c2ccccc2)nc2c(C#N)c[nH]n2c1=O + Cc1cncc(-c2nc(NCCc3c[nH]c4ccccc34)c3ncn(C(C)C)c3n2)c1"
label_value = "f"

[[record]]
compound = "O=C(C=Cc1cccc(S(=O)(=O)Nc2ccccc2)c1)NO + Cc1cncc(-c2nc(NCCc3c[nH]c4ccccc34)c3ncn(C(C)C)c3n2)c1"
label_value = "f"

[[record]]
compound = "CC1COCCN1c1cc(C2(S(C)(=N)=O)CC2)nc(-c2ccnc3[nH]ccc23)n1 (stereo not given) + Cc1cncc(-c2nc(NCCc3c[nH]c4ccccc34)c3ncn(C(C)C)c3n2)c1"
label_value = "f"

[[record]]
compound = "Nc1ccn(C2OC(CO)C(O)C2(F)F)c(=O)n1 (stereo not given) + CC(CO)NC(=O)c1cc(-c2ccc(Cl)cc2)nn(-c2cnn(C)c2)c1=O"
label_value = "t"


Please state the recorded outcome for this compound: CC1COCCN1c1cc(-c2ccnn2C)c2ccnc(-c3ccn[nH]3)c2n1 (stereo not given) + Cc1ccccc1N=Nc1ccc(NC(=O)c2ccnn2C)c(C)c1
t

Now give it for O=C(C=Cc1cccc(S(=O)(=O)Nc2ccccc2)c1)NO + CC(CO)NC(=O)c1cc(-c2ccc(Cl)cc2)nn(-c2cnn(C)c2)c1=O too.
f

Now give it for COc1cc(Nc2ncc3c(n2)-c2ccc(Cl)cc2C(c2c(F)cccc2OC)=NC3)ccc1C(=O)O + CC(CO)NC(=O)c1cc(-c2ccc(Cl)cc2)nn(-c2cnn(C)c2)c1=O too.
f

Now give it for COc1cc(C2c3cc4c(cc3C(OC3OC5COC(C)OC5C(O)C3O)C3COC(=O)C23)OCO4)cc(OC)c1O (stereo not given) + CC(CO)NC(=O)c1cc(-c2ccc(Cl)cc2)nn(-c2cnn(C)c2)c1=O too.
f

Now give it for CC1COCCN1c1cc(-c2ccnn2C)c2ccnc(-c3ccn[nH]3)c2n1 (stereo not given) + Cc1cncc(-c2nc(NCCc3c[nH]c4ccccc34)c3ncn(C(C)C)c3n2)c1 too.
t

Now give it for Nc1ccn(C2OC(CO)C(O)C2(F)F)c(=O)n1 (stereo not given) + Cc1ccccc1N=Nc1ccc(NC(=O)c2ccnn2C)c(C)c1 too.
t

Now give it for CC(C)c1c(-c2ccccc2)nc2c(C#N)c[nH]n2c1=O + CC(CO)NC(=O)c1cc(-c2ccc(Cl)cc2)nn(-c2cnn(C)c2)c1=O too.
f

Now give it for COc1cc(Nc2ncc3c(n2)-c2ccc(Cl)cc2C(c2c(F)cccc2OC)=NC3)ccc1C(=O)O + Cc1cncc(-c2nc(NCCc3c[nH]c4ccccc34)c3ncn(C(C)C)c3n2)c1 too.
f

Now give it for NS(=O)(=O)OCC1CC(n2ccc3c(NC4CCc5ccccc54)ncnc32)CC1O (stereo not given) + Cc1cncc(-c2nc(NCCc3c[nH]c4ccccc34)c3ncn(C(C)C)c3n2)c1 too.
f

Now give it for COc1ccc([C@@H](O)c2cc(-c3ncnc4cc(N5CCOCC5)ccc34)c(F)cc2Cl)nn1 + Cc1cncc(-c2nc(NCCc3c[nH]c4ccccc34)c3ncn(C(C)C)c3n2)c1 too.
f

---

System: 885512-296-R-J2-PDC complex spheroid growth, % test/control
procedure_summary: Anticancer human tumor 885512-296-R-J2-PDC cell line growth inhibition [AhR]; active = viability on the fitted dose curve at most 10% of control; inactive = the rest;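 note: spheroids exposed to compounds for seven days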
cond: second compound 10 µM; first compound 0.0316 µM
API: response.call in true (1) for active, false (0) for inactive

# example entries with known answers
[[record]]
compound = "CC(C)c1c(-c2ccccc2)nc2c(C#N)c[nH]n2c1=O + Cc1ccccc1N=Nc1ccc(NC(=O)c2ccnn2C)c(C)c1"
label_value = "false (0)"

[[record]]
compound = "COc1cc(Nc2ncc3c(n2)-c2ccc(Cl)cc2C(c2c(F)cccc2OC)=NC3)ccc1C(=O)O + Cc1cncc(-c2nc(NCCc3c[nH]c4ccccc34)c3ncn(C(C)C)c3n2)c1"
label_value = "false (0)"

[[record]]
compound = "CC1(C)CCC(CN2CCN(c3ccc(C(=O)NS(=O)(=O)c4ccc(NCC5CCOCC5)c([N+](=O)[O-])c4)c(Oc4cnc5[nH]ccc5c4)c3)CC2)=C(c2ccc(Cl)cc2)C1 + Cc1cncc(-c2nc(NCCc3c[nH]c4ccccc34)c3ncn(C(C)C)c3n2)c1"
label_value = "false (0)"

[[record]]
compound = "O=C(C=Cc1cccc(S(=O)(=O)Nc2ccccc2)c1)NO + CC(CO)NC(=O)c1cc(-c2ccc(Cl)cc2)nn(-c2cnn(C)c2)c1=O"
label_value = "false (0)"

[[record]]
compound = "Nc1ccn(C2OC(CO)C(O)C2(F)F)c(=O)n1 (configuration not stated) + CC(CO)NC(=O)c1cc(-c2ccc(Cl)cc2)nn(-c2cnn(C)c2)c1=O"
label_value = "true (1)"

[[record]]
compound = "O=C(C=Cc1cccc(S(=O)(=O)Nc2ccccc2)c1)NO + Cc1ccccc1N=Nc1ccc(NC(=O)c2ccnn2C)c(C)c1"
label_value = "false (0)"


Please state the recorded outcome for this compound: COc1cc(C2c3cc4c(cc3C(OC3OC5COC(C)OC5C(O)C3O)C3COC(=O)C23)OCO4)cc(OC)c1O (configuration not stated) + Cc1ccccc1N=Nc1ccc(NC(=O)c2ccnn2C)c(C)c1
false (0)

Now give it for O=C(c1cc(Cc2n[nH]c(=O)c3ccccc23)ccc1F)N1CCN(C(=O)C2CC2)CC1 + Cc1cncc(-c2nc(NCCc3c[nH]c4ccccc34)c3ncn(C(C)C)c3n2)c1 too.
false (0)

Now give it for Cn1ncnc1C1c2n[nH]c(=O)c3cc(F)cc(c23)NC1c1ccc(F)cc1 (configuration not stated) + Cc1ccccc1N=Nc1ccc(NC(=O)c2ccnn2C)c(C)c1 too.
false (0)

Now give it for O=C(C=Cc1cccc(S(=O)(=O)Nc2ccccc2)c1)NO + Cc1cncc(-c2nc(NCCc3c[nH]c4ccccc34)c3ncn(C(C)C)c3n2)c1 too.
false (0)

Now give it for CC[C@@]1(O)C(=O)OCc2c1cc1n(c2=O)Cc2cc3c(CN(C)C)c(O)ccc3nc2-1 + Cc1ccccc1N=Nc1ccc(NC(=O)c2ccnn2C)c(C)c1 too.
true (1)

Now give it for Nc1ccccc1NC(=O)c1ccc(CNC(=O)OCc2cccnc2)cc1 + Cc1ccccc1N=Nc1ccc(NC(=O)c2ccnn2C)c(C)c1 too.
false (0)

---

Test system: 885512-296-R-J2-PDC complex spheroid growth, % test/control
procedure_summary: Anticancer human tumor 885512-296-R-J2-PDC cell line growth inhibition [AhR];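 note: spheroids exposed to compounds for seven days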
cond: second compound 1 µM; first compound 0.1 µM; stronger effect = lower value
// values below are reported viability, T/C
All answers are understood in %, so give the number only.

I am curious: what viability, T/C value has been reported for COc1cccc2c1C(=O)c1c(O)c3c(c(O)c1C2=O)CC(O)(C(=O)CO)CC3OC1CC(N)C(O)C(C)O1 (centres undefined) + Cc1ccccc1N=Nc1ccc(NC(=O)c2ccnn2C)c(C)c1 ?
12.7

Now give it for NS(=O)(=O)OCC1CC(n2ccc3c(NC4CCc5ccccc54)ncnc32)CC1O (centres undefined) + Cc1cncc(-c2nc(NCCc3c[nH]c4ccccc34)c3ncn(C(C)C)c3n2)c1 too.
41

Now give it for CC1(C)CCC(CN2CCN(c3ccc(C(=O)NS(=O)(=O)c4ccc(NCC5CCOCC5)c([N+](=O)[O-])c4)c(Oc4cnc5[nH]ccc5c4)c3)CC2)=C(c2ccc(Cl)cc2)C1 + Cc1cncc(-c2nc(NCCc3c[nH]c4ccccc34)c3ncn(C(C)C)c3n2)c1 too.
84.5
